Taken from ChEMBL document CHEMBL3988442.

Listed next: entries and their corresponding Percent Effect.
Molecular target: AMP-activated protein kinase, AMPK (Homo sapiens) (UniProt P54646+O43741+P54619+Q9UGJ0+Q9Y478+Q13131+Q9UGI9)
Assay: AMP-dependent Kinase enzyme assay. An in vitro enzyme assay that detects ADP turnover that is directly proportional to AMPK activity. This uses naive AMPK that is activated during the assay with MK-8722
Format: functional
Parameters: scale not given: direction of the effect not stated beside the values
Conditions: 30 µM
Number in %, nothing else.

molecule: Cc1cc(C(=O)N2C[C@@H]3COC[C@]3(c3nnc(C4CC4)o3)C2)on1
Percent Effect [%]: -3.2

// query Quick check: Percent Effect of "CN(C)CCN(C)C(=O)c1cnc2c(c1)nc(-c1ccccc1Cl)n2C" ?
// result -0.741

// query # input molecule: "O=S(=O)(N1CCCCC1)N1CCc2nc(C3CCNCC3)ncc2C1" ; wanted: its Percent Effect
// result 0.892

// query Requested read-out: Percent Effect. Entry: "CC(C)(NCC(=O)NCC(F)(F)F)c1ccc2c(c1)OCCO2"
// result -7.25

----------
Target: Protein translocase subunit SecA (Escherichia coli (strain K12)) (UniProt P10408)
Sequence (P10408 whole entry): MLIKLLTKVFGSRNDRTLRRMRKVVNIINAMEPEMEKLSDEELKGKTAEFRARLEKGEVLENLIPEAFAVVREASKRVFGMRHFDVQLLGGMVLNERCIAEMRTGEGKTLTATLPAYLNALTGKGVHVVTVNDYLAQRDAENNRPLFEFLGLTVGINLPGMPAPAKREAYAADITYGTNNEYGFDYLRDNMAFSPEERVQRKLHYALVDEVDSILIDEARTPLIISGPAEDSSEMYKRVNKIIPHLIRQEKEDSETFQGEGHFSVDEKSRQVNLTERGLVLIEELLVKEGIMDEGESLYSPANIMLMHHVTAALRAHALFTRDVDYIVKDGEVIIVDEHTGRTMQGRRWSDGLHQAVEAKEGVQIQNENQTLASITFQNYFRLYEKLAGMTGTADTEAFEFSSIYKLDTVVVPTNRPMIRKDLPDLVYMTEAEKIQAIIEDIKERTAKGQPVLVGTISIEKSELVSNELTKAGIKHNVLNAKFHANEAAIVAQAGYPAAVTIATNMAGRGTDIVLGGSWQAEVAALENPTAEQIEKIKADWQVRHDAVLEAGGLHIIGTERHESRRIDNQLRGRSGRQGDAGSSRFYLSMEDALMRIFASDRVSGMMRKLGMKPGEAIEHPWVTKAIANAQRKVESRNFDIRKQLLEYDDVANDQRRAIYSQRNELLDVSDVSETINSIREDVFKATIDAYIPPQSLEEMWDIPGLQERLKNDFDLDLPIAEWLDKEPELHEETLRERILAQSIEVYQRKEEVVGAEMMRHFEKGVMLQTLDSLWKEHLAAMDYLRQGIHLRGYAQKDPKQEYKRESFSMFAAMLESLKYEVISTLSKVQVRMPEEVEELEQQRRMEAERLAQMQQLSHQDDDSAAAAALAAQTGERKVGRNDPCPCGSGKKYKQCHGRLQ
Assay: Assay to Identify E. coli SecA ATPase Inhibitors
Assay type: functional
Set-up: scale not given: direction of the effect not stated beside the values
Conditions: 30 µM
Results with a measured potency or affinity are listed apart.
experimentalEndpoint: Percent Effect (%)
Reply numerically in %, unit not repeated.

compound: CCN1CCOC(CNCc2ccccc2OCC(=O)N(C)C)C1 (stereo unspecified)
testTarget: Protein translocase subunit SecA (Escherichia coli (strain K12)) (UniProt P10408)
Percent Effect [%]: -1.78

compound: O=C(c1ccccn1)N1CCc2c(nc(N3CCCC3)[nH]c2=O)C1
testTarget: Protein translocase subunit SecA (Escherichia coli (strain K12)) (UniProt P10408)
Percent Effect [%]: -7.12

// query Sample "O=c1nc(SCc2cccnc2)c2c(n1CCO)CCC2" — what was its Percent Effect?
// result -1.99

// query Look up Percent Effect for this compound: "CCOc1cc(C)nc(N2CCN(C(=O)c3ccnn3C)CC2)n1"
// result -1.84

// query Given CC(C)NC(=O)N1CCN(CC2CC2)CC2(CC(=O)N(C)C2)C1 (stereo unspecified) , state its recorded Percent Effect.
// result 0.576

// query Quick one: Percent Effect for CC1Cc2ccccc2N1Cc1occc1C(=O)OCC(N)=O (stereo unspecified) ?
// result -4.31

// query Quick one: Percent Effect for Cn1c(Cn2ccnc2)nnc1C1CCCN(C2CCCCC2)C1 (stereo unspecified) ?
// result -3.14

// query I'd like to know its Percent Effect. The compound in question is "Cn1cc(C(=O)NCc2cn3c(n2)CN(Cc2ccccn2)CC3)cn1"
// result -7.16

----------
Readings of Percent Effect for the listed compounds
Target: Arginase-2, mitochondrial (Homo sapiens) (UniProt P78540)
Sequence (P78540 whole entry): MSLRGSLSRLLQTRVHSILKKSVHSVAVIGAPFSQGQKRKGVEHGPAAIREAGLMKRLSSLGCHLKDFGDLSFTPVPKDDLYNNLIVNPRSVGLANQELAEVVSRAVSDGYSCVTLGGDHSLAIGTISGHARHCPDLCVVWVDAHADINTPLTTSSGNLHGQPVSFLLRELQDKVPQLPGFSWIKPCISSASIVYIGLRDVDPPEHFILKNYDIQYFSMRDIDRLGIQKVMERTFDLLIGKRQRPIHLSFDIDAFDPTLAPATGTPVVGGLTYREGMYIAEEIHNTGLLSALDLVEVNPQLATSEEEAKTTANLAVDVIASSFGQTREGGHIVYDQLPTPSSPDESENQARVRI
Experiment: in vitro enzyme assay to detect the production of urea directly proportional to the activity of Arginase II; note: in the data most compounds retested in dose-response had high values
Format: functional
Design: scale not given: direction of the effect not stated beside the values
Details: 33.3 µM
The reply should contain only the number, in %.

compound: Cc1nc(COC[C@]23COC[C@H]2CN(Cc2ccoc2)C3)cs1
experimentalEndpoint: Percent Effect
testValue: 0.248
//
compound: O=C(Nc1ccc(CCN2CCC(O)CC2)cc1)C1CCOCC1
experimentalEndpoint: Percent Effect
testValue: -1.66
//
compound: CCn1cnnc1C1CCN(C(=O)c2ccc(Cl)s2)CC1
experimentalEndpoint: Percent Effect
testValue: 2.66
//
compound: Cc1nc(C2CCCN(C(=O)c3cnn(C(C)(C)C)c3)C2)no1 (centres undefined)
experimentalEndpoint: Percent Effect
testValue: -1.07
//
compound: C[C@@H]1CN(C(=O)c2ccsc2)C[C@]12CCN(c1ccsc1)C2=O
experimentalEndpoint: Percent Effect
testValue: -1.63

Please find the next compound below.
// query // lookup Percent Effect | system=Arginase-2, mitochondrial (Homo sapiens) (UniProt P78540) | key= CN1C(=O)CC(C(=O)O)C12CCN(Cc1ccc(F)cc1Cl)CC2 (centres undefined)
// result -0.521
